# Tested on: HCT-116
# Experiment summary: NCI tumour cell line growth inhibition, 48 h
The source made the active and inactive calls. Rule as the data show it: active = GI50 up to about 1.1 µM and inactive = higher.
Property label: GI50

Compound: COC1OC(CBr)C(OC(c2ccccc2)(c2ccccc2)c2ccccc2)C(OC(c2ccccc2)(c2ccccc2)c2ccccc2)C1OC(c1ccccc1)(c1ccccc1)c1ccccc1 (stereo not given)
Property label: GI50
Data value: 37.6 µM (inactive)
//
Compound: O=C1OC2(c3ccccc31)c1cc(I)c(O)c(I)c1Oc1c2cc(I)c(O)c1I
Property label: GI50
Data value: 72.4 µM (inactive)

Need GI50 of `CCNCCC1(CC)C(=O)NC(=O)NC1=O` , thanks. > 100 µM (inactive)

Need GI50 of `CCc1cc(CCC(=O)Nc2c(C)cccc2C)n[nH]1` , thanks. > 100 µM (inactive)

* * *

# Test system: 786-0
# Experiment summary: NCI tumour cell line growth inhibition, 48 h
Active and inactive are the calls of the source. Cut-off read from the data, not from the text of the source: active = GI50 up to about 1.1 µM and inactive = higher.
Readings of GI50 for the listed compounds

The examples below pair each entry with its known result.
Compound: O=C1Cc2cc3ccccc3nc2-c2ccccc2N1
Target under test: 786-0
Data value: 35.1 µM (inactive)

Compound: CC(NC(=O)C(C)C(=O)NCc1ccc(C(F)(F)F)cc1)C(N)=O (stereo unspecified)
Target under test: 786-0
Data value: > 100 µM (inactive)

Compound: COc1ccc(C(=O)c2c(C(C(=O)c3ccc(OC)cc3)C(=O)c3ccc(OC)cc3)n(C(=O)c3ccc(OC)cc3)c3ccccc23)cc1
Target under test: 786-0
Data value: > 100 µM (inactive)

Need GI50 of Cc1ccc(C2=Nc3c(N)nc(N)nc3NC(c3ccccc3)C2)cc1 (stereo unspecified) , thanks. 13.2 µM (inactive)

Need GI50 of `COC1=CC(=O)C2=C(C1=O)[C@H]1CC[C@]3(C)[C@@H](O)CC[C@H]3[C@@H]1CC2` , thanks. 19.5 µM (inactive)

Need GI50 of `CN(C)CCCN1c2ccccc2CCc2cccc([N+](=O)[O-])c21` , thanks. 15.3 µM (inactive)

Need GI50 of O=C(O)CCCc1ccc2c(c1)C(C(=O)O)CC2 (stereo unspecified) , thanks. > 100 µM (inactive)

Need GI50 of COC1OC(CBr)C(OC(c2ccccc2)(c2ccccc2)c2ccccc2)C(OC(c2ccccc2)(c2ccccc2)c2ccccc2)C1OC(c1ccccc1)(c1ccccc1)c1ccccc1 (stereo unspecified) , thanks. 19.4 µM (inactive)

* * *

Readings of GI50 for the listed molecules
# System: OVCAR-8
# Experiment summary: NCI tumour cell line growth inhibition, 48 h
Activity calls are given as the source filed them. Rule as the data show it: active = GI50 up to about 1.1 µM and inactive = higher.

The examples below pair each entry with its known result.
Molecule: CN(C)CCN(c1ccccn1)c1ccccn1
Property label: GI50
Data value: > 100 µM (inactive)
--
Molecule: COc1cc2ccc(/C=C\[N+](=O)[O-])cc2cc1OC
Property label: GI50
Data value: 3.12 µM (inactive)
--
Molecule: CCCCC(=C=C(C)CO)C1CCCN1C(=O)OC(C)(C)C (stereo not given)
Property label: GI50
Data value: 18.2 µM (inactive)
--
Molecule: O=C1/C(=N/CCc2cc(Br)c(O)c(Br)c2)C=C(O)c2cccnc21
Property label: GI50
Data value: 4.38 µM (inactive)

Shifting focus to the molecule that follows.
Checklist item: GI50 tested on OVCAR-8, entry O=C(O)CCCCCNC(=O)CCC(CN(CC(=O)OCc1ccccc1)CC(=O)OCc1ccccc1)N(CC(=O)OCc1ccccc1)CC(=O)OCc1ccccc1 (stereo not given) , value? 16.5 µM (inactive)
